Tested on: SK-OV-3 ovarian
Test: NCI tumour cell line growth inhibition, 48 h
recorded_metric: GI50

A selection of reference data follows.
CC(=O)C1=C(O)C=C2Oc3c(C(=O)/C=C/c4cc(Cl)cc(Cl)c4)c(O)c(C)c(O)c3[C@]2(C)C1=O	0.449 µM
C#CCN(c1ccc(C(=O)N[C@@H](CCC(=O)N[C@H](CCC(=O)O)C(=O)O)C(=O)O)cc1)C1CCc2cc3nc(CO)[nH]c(=O)c3cc21 (some centres undefined)	> 53.4 µM

Given the molecule CCCCCCCC/C=C/CCCCCCCC1=NC(C)(C)CN1CCO and test system SK-OV-3 ovarian, the measured GI50 is 9.97 µM

Given the molecule CCOc1ccn(-c2ccc(F)cc2)c(=O)c1C(=O)Nc1ccc(Oc2ccnc(N)c2Cl)c(F)c1 and test system SK-OV-3 ovarian, the measured GI50 is 11.7 µM
